Target: CETP (Homo sapiens, UniProt P11597)
Assay: CETP in vitro assay ([3H]CE-HDL transfer, Amersham kit TRKQ7005; modified protocol in human plasma)
Settings: multiple values = multiple measurements
pIC50: −log10 of the molar value.
reported.endpoint: pIC50

>  <molecule>
CCc1ccc(C2COc3c(-c4cccc(OC(F)(F)F)c4)cccc3N2CC(O)C(F)(F)F)s1 (stereo not shown) [Compound 58]

>  <system.name>
CETP (Homo sapiens, UniProt P11597)

>  <measured.value>
6.30

$$$$

A. CCCN1c2cccc(-c3cccc(OC(F)(F)F)c3)c2OCC1c1cccc(OC(F)(F)C(F)F)c1 (stereo not shown) [Compound 34]
B. O[C@@H](CN1c2cccc(-c3cccc(OC(F)(F)F)c3)c2OC[C@@H]1c1cccc(OC(F)(F)C(F)F)c1)C(F)(F)F [Compound 3]
# input // compare measured pIC50, left A , right B , return larger Respond with the label that goes with your answer.
# output B

###

Molecular target: CETP (Homo sapiens)
Construct: from tissue; host or cells: human plasma from normal volunteers
Test: CETP in vitro assay ([3H]CE-HDL transfer, Amersham kit TRKQ7005; modified protocol in human plasma)
Type: biochemical
Settings: 1 μM compound; multiple values = multiple measurements
reported.endpoint: inhibition at 1 µM (%)

>  <molecule>
O[C@@H](CN1c2cccc(-c3cccc(OC(F)(F)F)c3)c2OC[C@@H]1c1cccc(OC(F)(F)F)c1)C(F)(F)F

>  <measured.value>
68

$$$$
>  <molecule>
COCCCN1c2cccc(-c3cccc(OC(F)(F)F)c3)c2OCC1c1cccc(OC(F)(F)C(F)F)c1 (stereo not shown)

>  <measured.value>
29

$$$$
>  <molecule>
COCCN1c2cccc(-c3cccc(OC(F)(F)F)c3)c2OCC1c1cccc(OC(F)(F)C(F)F)c1 (stereo not shown)

>  <measured.value>
25

$$$$

P. CCc1ccsc1C1COc2c(-c3cccc(OC(F)(F)F)c3)cccc2N1CC(O)C(F)(F)F (stereo not shown)
Q. CN1c2cccc(-c3cccc(OC(F)(F)F)c3)c2OCC1c1cccc(OC(F)(F)C(F)F)c1 (stereo not shown)
# input Between these two entries, P and Q , state which has the higher inhibition at 1 µM. Use the label to indicate which entry you chose.
# output P
(P: 8%, Q: 0%)

P. O[C@@H](CN1c2cccc(-c3cc(C(F)(F)F)cc(C(F)(F)F)c3)c2OC[C@@H]1c1cccc(OC(F)(F)C(F)F)c1)C(F)(F)F
Q. O[C@@H](CN1c2cccc(-c3cccc(OC(F)(F)F)c3)c2OC[C@@H]1c1cccc(OC(F)(F)C(F)F)c1)C(F)(F)F
# input // max by inhibition at 1 µM over [ P , Q ] Your answer should be the label attached to the chosen record.
# output Q
(Q: 91%, P: 55%)

###

Biological target: CETP (Homo sapiens)
Construct: from tissue; host or cells: human plasma from normal volunteers
Sequence (P11597 18-493): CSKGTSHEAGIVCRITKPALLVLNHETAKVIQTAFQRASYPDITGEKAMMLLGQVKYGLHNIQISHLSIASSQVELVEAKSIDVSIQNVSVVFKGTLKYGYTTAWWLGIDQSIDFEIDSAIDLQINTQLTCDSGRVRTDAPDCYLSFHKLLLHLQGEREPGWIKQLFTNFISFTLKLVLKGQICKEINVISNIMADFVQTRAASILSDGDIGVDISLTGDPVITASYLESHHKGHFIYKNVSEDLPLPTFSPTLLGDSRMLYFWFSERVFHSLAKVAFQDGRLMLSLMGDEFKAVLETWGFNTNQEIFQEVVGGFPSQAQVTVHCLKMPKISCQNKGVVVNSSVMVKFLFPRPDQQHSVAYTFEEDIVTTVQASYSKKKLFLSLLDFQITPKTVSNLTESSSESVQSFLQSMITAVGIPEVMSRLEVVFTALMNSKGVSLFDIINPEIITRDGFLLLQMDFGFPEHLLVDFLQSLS
Assay: CETP in vitro assay ([3H]CE-HDL transfer, Amersham kit TRKQ7005; modified protocol in human plasma)
Assay type: biochemical
Conditions: 1 μM compound; multiple values = multiple measurements
reported.endpoint: inhibition at 1 µM (%)

>  <molecule>
CS(=O)(=O)NCCN1c2cccc(-c3cccc(OC(F)(F)F)c3)c2OCC1c1cccc(OC(F)(F)C(F)F)c1 (stereo not shown) [Compound 43]

>  <units.of.measure>
%

>  <inhibition at 1 µM>
0

$$$$

A. FC(F)C(F)(F)Oc1cccc(C2COc3c(-c4cccc(OC(F)(F)F)c4)cccc3N2CCN2CCNCC2)c1 (stereo not shown) [Compound 30]
B. O[C@H](CN1c2cccc(-c3cccc(OC(F)(F)F)c3)c2OC[C@@H]1c1cccc(OC(F)(F)C(F)F)c1)C(F)(F)F [Compound 4]
C. CC(=O)CN1c2cccc(-c3cccc(OC(F)(F)F)c3)c2OC[C@@H]1c1cccc(OC(F)(F)C(F)F)c1 [Compound 38]
# input Could you please order the items by inhibition at 1 µM, going from the lowest number to the highest? Answer format: the labels, in the requested order.
# output A, C, B
(A: 0%, C: 5%, B: 26%)

Origin of the recorded values: patent US8012963B2
